Target: NK1 receptors (Homo sapiens, UniProt P25103)
Sequence (P25103 whole entry): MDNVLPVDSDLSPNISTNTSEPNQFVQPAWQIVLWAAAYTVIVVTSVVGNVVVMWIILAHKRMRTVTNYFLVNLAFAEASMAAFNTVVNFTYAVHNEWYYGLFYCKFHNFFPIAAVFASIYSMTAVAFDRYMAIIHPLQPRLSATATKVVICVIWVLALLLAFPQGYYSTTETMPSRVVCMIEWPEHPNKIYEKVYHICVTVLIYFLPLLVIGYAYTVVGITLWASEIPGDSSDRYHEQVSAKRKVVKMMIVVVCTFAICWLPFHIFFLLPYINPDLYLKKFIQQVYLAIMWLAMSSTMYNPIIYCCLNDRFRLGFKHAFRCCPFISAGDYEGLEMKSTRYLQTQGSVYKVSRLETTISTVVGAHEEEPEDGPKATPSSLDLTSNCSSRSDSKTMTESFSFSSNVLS
property name: IC50

>>> result("CN(C[C@@H](CCN1CCC(N2CCCNC2=O)CC1)c1ccc(Cl)c(Cl)c1)C(=O)c1ccccc1 [the Compound]")
"0.187 µM"
